Molecular target: D614G Spike (SARS-CoV2, UniProt P0DTC2 16-1213)
Quantity kind: pKd
Remember the convention: pKd equals -log10 of concentration in molar.

1. S1-RBD-R3-E1-E8 Ab (Ab 37) (scFv, V domains shown) VH: QVQLVQSGAEVKKPGASVKVSCKASGYTFTSYGISWVRQAPGQGLEWMGWISTYNGNTNYAQKLQGRVTMTTDTSTSTAYMEVRSLRSDDTAVYYCARDVFGHFDYWGQGTLVTVSS VL: NFMLTQPHSVSESPGKTVLISCTRSSGNIATNYVQWYQQRPGSAPTTVIYEDNQRPSGVPDRFSGSIDSSSNSASLTISGLKTEDEADYYCKSYDDGNHVFGGGTKLTVL    11.07
2. Ab 38 (scFv, V domains shown) VH: QVTLKESGPTLVKPTQTLTLTCTFSGFSLTTSGVSVGWIRQPPGKALEWLALIHWDDDKRYSPSLRSRLTITRDTSKNQVVLTVTDMDPADTGTYYCASFIMTVYAEYFEDWGQGTLVTVSS VL: EIVLTQSPATLSVSPGERATLSCRASQSVSSNLAWYQQKPGQAPRLLMYDVSTRATGIPARFSGSGSGTEFSLTISSLQSEDFAVYYCQQRGAWPLTFGGGTKVEIK    11.47

Now consider a different binder.
q: Using the record for RBD-R3-E1-F5 Ab (Ab_36) (scFv, V domains shown) VH: QVQLQQSGPGLVKPSQTLSLTCAIFGDSVTSNSAAWNWIRQSPSRGLEWLGRTYYSSKWYNDYAVSVKSRVTINADTSKNQLSLQLNSVTPEDTAVYYCARGWLRLSFDPWGQGTLVTVSS VL: NFMLTQPHSVSESPGKTVTISCTGSSGSIASNYVQWLQQRLGSAPTTVIYEDNQRPSGVPDRFSGSIDSSSNSASLTISGLKTEDEADYYCQSYDPNNHGVVFGGGTKLTVL , report its pKd.
a: 11.13

Data provenance is patent US20230374114A1.
